- System: HEK-293T
- assay: Multiplex assay against HEK293T
- Format: toxicity, cell-based
- particulars: human, 48 h, 10 µM, compound concentration 10 uM, replicate 1
Threshold 20%: Population Mitotic Cells (%) strictly smaller gives TRUE, otherwise FALSE.

# molecule, assigned category
rows = [
    ("CC(C)NC(=O)N1CC[C@H](NC2=Nc3cc(F)ccc3N(CC(F)F)c3ccc(Cl)cc32)C1", "FALSE"),
    ("CCc1nn(CCCN2CCN(c3cccc(Cl)c3)CC2)c(=O)n1CCOc1ccccc1.Cl [NEFAZODONE HYDROCHLORIDE]", "TRUE"),
    ("Cl.O=C(O)c1cc(-c2ccc(C3CCNCC3)cc2)c2ccc(-c3ccc(C(F)(F)F)cc3)cc2c1", "FALSE"),
    ("Cc1ccc(C)c(Oc2ccncc2C(=O)N2CCN(C3CC3)c3ccccc32)c1", "TRUE"),
    ("C[C@]12CC[C@@H]3c4ccc(O)cc4CC[C@H]3[C@@H]1CC[C@@H]2O", "FALSE"),
    ("CC(C)c1noc(N2CCC(COc3ccc(-c4ccc(S(C)(=O)=O)cc4)nc3)CC2)n1", "FALSE"),
    ("CC(C)Oc1ccccc1C(=O)Nc1ccccc1C(=O)Nc1cccc(S(=O)(=O)C(F)(F)F)c1", "FALSE"),
    ("C#Cc1cccc(Nc2ncnc3cc(OCCOC)c(OCCOC)cc23)c1", "FALSE"),
    ("CCOC(=O)Nc1cc(-c2ccc(C)c(NS(C)(=O)=O)c2)nn2c(C)nnc12", "FALSE"),
    ("COc1cc(Nc2nccc(-c3cnn4nc(OC)ccc34)n2)cc(C(F)(F)F)c1", "FALSE"),
    ("CNC(=O)Nc1ccc(-c2nc(N3CC4CCC(C3)O4)c3cnn(C4CCC5(CC4)OCCO5)c3n2)cc1", "TRUE"),
    ("COc1cc2ncn(-c3cc(OCc4ccccc4C(F)(F)F)c(C(N)=O)s3)c2cc1OC [GW843682X]", "FALSE"),
    ("Cc1cccc(CN2CCN(C(c3ccccc3)c3ccc(Cl)cc3)CC2)c1.Cl.Cl (configuration not stated)", "FALSE"),
    ("Cc1ccc2c(c1)c1c(n2CCc2ccc(C)nc2)CCN(C)C1 [LATREPIRDINE]", "TRUE"),
    ("COc1ccc(-c2ccc3ncc4c(c3c2)n(-c2ccc(N3CCNCC3)c(C(F)(F)F)c2)c(=O)n4C)cn1.O=C(O)/C=C\\C(=O)O", "TRUE"),
    ("CN1CCN(Cc2ccc(Nc3ncc(Cl)c(Nc4ccccc4S(=O)(=O)N(C)C)n3)cc2)CC1", "FALSE"),
]

---

Listed compounds paired with reported Population Tubulin-Different-Phenotype (%)
- Tested on: U2OS
- assay: Multiplex assay against U2OS
- Assay type: toxicity, cell-based
- particulars: human, 12 h, 1 µM, compound concentration 1 uM, replicate 2
measured parameter: Population Tubulin-Different-Phenotype (%)

# compound, experimental result
records = [
    ("CC(C)NC(=O)N1CC[C@H](NC2=Nc3cc(F)ccc3N(CC(F)F)c3ccc(Cl)cc32)C1", 14),
    ("CCOC(=O)Nc1cc(-c2ccc(C)c(NS(C)(=O)=O)c2)nn2c(C)nnc12", 47),
    ("CNC(=O)Nc1ccc2c(c1)[C@@]1(CC2)OC(=O)N(CC(=O)N(Cc2ccc(F)cc2)[C@@H](C)C(F)(F)F)C1=O", 60),
    ("CC(C)OC(=O)N1CCC(Oc2ncnc3c2cnn3-c2ccc(S(C)(=O)=O)cc2F)CC1", 7),
    ("COc1ccccc1CN[C@H]1C2CCN(CC2)[C@H]1C(c1ccccc1)c1ccccc1", 8),
    ("CCc1ccc(OCc2ccccc2C(=O)Nc2ccc3nc(C)cc(N)c3c2)cc1.Cl", 85),
    ("O=C(c1cc2c(cc1F)OC(c1ccc(F)cc1)(c1ccc(Cl)cc1Cl)O2)N1CCOCC1 (stereo not given)", 15),
    ("Cc1ccc2c(c1)c1c(n2CCc2ccc(C)nc2)CCN(C)C1 [LATREPIRDINE]", 27),
    ("CC(C)c1noc(N2CCC(COc3ccc(-c4ccc(S(C)(=O)=O)cc4)nc3)CC2)n1", 9),
    ("CNC(=O)c1ccc(Nc2ncc(C(F)(F)F)c(NCc3nccnc3N(C)S(C)(=O)=O)n2)cc1", 24),
    ("O=c1cc(N2CCOCC2)oc2c(-c3cccc4c3sc3ccccc34)cccc12", 14),
    ("Cc1c[nH]c2nccc(Oc3c(F)cc(Nc4cc(Cl)nc(N)n4)cc3F)c12", 12),
    ("CN1CCN(Cc2ccc(Nc3ncc(Cl)c(Nc4ccccc4S(=O)(=O)N(C)C)n3)cc2)CC1", 11),
    ("Cl.O=C(O)c1cc(-c2ccc(C3CCNCC3)cc2)c2ccc(-c3ccc(C(F)(F)F)cc3)cc2c1", 36),
    ("CC(C)CC(=O)Nc1[nH]nc2c1CN(C(=O)C1CCN(C)CC1)C2(C)C", 35),
]

---

- System: U2OS
- assay: Multiplex assay against U2OS
- Type: toxicity, cell-based
- particulars: human, 12 h, 10 µM, compound concentration 10 uM, replicate 2
Class MET: Population Fragmented Nuclei (%) at least 10%. Class NOT MET: Population Fragmented Nuclei (%) below 10%.

# molecule, assigned category
records = [
    ("CC(C)Oc1ccccc1C(=O)Nc1ccccc1C(=O)Nc1cccc(S(=O)(=O)C(F)(F)F)c1", "MET"),
    ("Cc1ccc(C)c(Oc2ccncc2C(=O)N2CCN(C3CC3)c3ccccc32)c1", "NOT MET"),
    ("CC(C)CC(=O)Nc1[nH]nc2c1CN(C(=O)C1CCN(C)CC1)C2(C)C", "MET"),
    ("O=c1[nH]c2ccccc2n1C1CCN(Cc2ccc(-c3[nH]c4cc5ncnc5cc4nc3-c3ccccc3)cc2)CC1", "MET"),
    ("CC(C)c1noc(N2CCC(COc3ccc(-c4ccc(S(C)(=O)=O)cc4)nc3)CC2)n1", "NOT MET"),
    ("C=CC(=O)Nc1ccc2[nH]c(=O)n(C3CCN(Cc4ccc(-c5nc6cc[nH]c(=O)c6cc5-c5ccccc5)cc4)CC3)c2c1", "NOT MET"),
    ("C=CC(=O)Nc1cccc(Sc2nc(Nc3ccc(N4CCN(C)CC4)cc3)ncc2Cl)c1", "NOT MET"),
    ("Cc1ccc2c(c1)c1c(n2CCc2ccc(C)nc2)CCN(C)C1 [LATREPIRDINE]", "NOT MET"),
    ("CCc1nn(CCCN2CCN(c3cccc(Cl)c3)CC2)c(=O)n1CCOc1ccccc1.Cl [NEFAZODONE HYDROCHLORIDE]", "NOT MET"),
    ("Cc1c[nH]c2nccc(Oc3c(F)cc(Nc4cc(Cl)nc(N)n4)cc3F)c12", "MET"),
    ("O=c1cc(N2CCOCC2)oc2c(-c3cccc4c3sc3ccccc34)cccc12", "MET"),
    ("Cc1cccc(CN2CCN(C(c3ccccc3)c3ccc(Cl)cc3)CC2)c1.Cl.Cl (stereo not given)", "MET"),
    ("CCc1ccc(OCc2ccccc2C(=O)Nc2ccc3nc(C)cc(N)c3c2)cc1.Cl", "NOT MET"),
    ("CNC(=O)Nc1ccc2c(c1)[C@@]1(CC2)OC(=O)N(CC(=O)N(Cc2ccc(F)cc2)[C@@H](C)C(F)(F)F)C1=O", "NOT MET"),
    ("COC(=O)C1=C(C)NC(C)=C(C(=O)OCCCN2CCC(c3ccccc3)(c3ccccc3)CC2)[C@H]1c1cccc([N+](=O)[O-])c1", "MET"),
    ("Cc1nc(N2CC[C@H](O)C2)ncc1-c1cc(C(F)(F)F)cc2[nH]ncc12", "NOT MET"),
    ("COc1ccc(-c2ccc3ncc4c(c3c2)n(-c2ccc(N3CCNCC3)c(C(F)(F)F)c2)c(=O)n4C)cn1.O=C(O)/C=C\\C(=O)O", "MET"),
    ("C=CC(=O)Nc1cccc(Oc2nc(Nc3ccc(N4CCN(C)CC4)cc3OC)ncc2Cl)c1", "MET"),
    ("COc1cc(Nc2nccc(-c3cnn4nc(OC)ccc34)n2)cc(C(F)(F)F)c1", "MET"),
    ("C[C@]12CC[C@@H]3c4ccc(O)cc4CC[C@H]3[C@@H]1CC[C@@H]2O", "NOT MET"),
    ("COc1ccccc1CN[C@H]1C2CCN(CC2)[C@H]1C(c1ccccc1)c1ccccc1", "NOT MET"),
    ("CCCSc1nc(N[C@@H]2C[C@H]2c2ccc(F)c(F)c2)c2nnn([C@@H]3C[C@H](OCCO)[C@@H](O)[C@H]3O)c2n1", "NOT MET"),
    ("CC(C)NC(=O)N1CC[C@H](NC2=Nc3cc(F)ccc3N(CC(F)F)c3ccc(Cl)cc32)C1", "NOT MET"),
    ("COc1cc2ncn(-c3cc(OCc4ccccc4C(F)(F)F)c(C(N)=O)s3)c2cc1OC [GW843682X]", "MET"),
    ("CNC(=O)Nc1ccc(-c2nc(N3CC4CCC(C3)O4)c3cnn(C4CCC5(CC4)OCCO5)c3n2)cc1", "MET"),
    ("Cl.O=C(O)c1cc(-c2ccc(C3CCNCC3)cc2)c2ccc(-c3ccc(C(F)(F)F)cc3)cc2c1", "MET"),
    ("CC(C)OC(=O)N1CCC(Oc2ncnc3c2cnn3-c2ccc(S(C)(=O)=O)cc2F)CC1", "NOT MET"),
    ("CC1=C(C(=O)Nc2cc3cn[nH]c3cc2F)C(c2ccc(C(F)(F)F)cc2)CC(=O)N1 (stereo not given)", "MET"),
    ("CN1CCN(Cc2ccc(Nc3ncc(Cl)c(Nc4ccccc4S(=O)(=O)N(C)C)n3)cc2)CC1", "MET"),
]
